# System: IGROV1 ovarian
# assay-info: NCI tumour cell line growth inhibition, 48 h
Assignment: determine reported TGI for the given compounds.

### Prompt Value lookup for TGI; key = O=S1c2ccccc2N=C(c2ccc(Cl)cc2)CC1c1cccs1 (configuration not stated)
### Response 35.7 µM

### Prompt Value lookup for TGI; key = O=C(O[C@H]1CN[C@H](C#Cc2cc3ncnc(Nc4ccc(OCc5cccc(F)c5)c(Cl)c4)c3s2)C1)N1CCOCC1
### Response > 25 µM

### Prompt Value lookup for TGI; key = C[Si](C)(C)/C=C\CCCN1C(=O)CCC1=O
### Response > 100 µM

### Prompt Value lookup for TGI; key = CCn1c(-c2ccc(C)cc2)cs/c1=N\C(P(=O)(O)O)P(=O)(O)O
### Response > 100 µM

### Prompt Value lookup for TGI; key = CC1=C(C(=O)Nc2ccccc2)C(c2ccc(C)o2)C(C#N)=C(SCc2ccccc2)N1 (configuration not stated)
### Response > 100 µM

### Prompt Value lookup for TGI; key = CCOC(=O)CNC1C(NC(C)=O)C(OC)OC2COC(c3ccccc3)OC21 (configuration not stated)
### Response > 100 µM

### Prompt Value lookup for TGI; key = Nc1nc(N)c2nnn(C[C@H]3CC[C@@H](CO)C3)c2n1
### Response > 100 µM

### Prompt Value lookup for TGI; key = NC12CC3CC4C1CC1CC2C(C3)C4(N)C1
### Response > 100 µM

### Prompt Value lookup for TGI; key = COc1ccc(C[C@H]2COC(=O)[C@@H]2Cc2ccc(O)cc2)cc1OC
### Response > 100 µM

### Prompt Value lookup for TGI; key = NC(Cc1c[nH]c2ccccc12)C(=O)O (configuration not stated)
### Response > 300 µM

### Prompt Value lookup for TGI; key = O=C1/C(=C/c2cccs2)NC(=S)N1CN1CCOCC1
### Response > 100 µM

### Prompt Value lookup for TGI; key = N/C(=N\c1nc2ccccc2s1)NC(=O)Nc1ccccc1Cl
### Response 21.6 µM

### Prompt Value lookup for TGI; key = CNC(=O)c1cncc(/C=C/c2c(C)cccc2C)c1
### Response > 25 µM

### Prompt Value lookup for TGI; key = Cc1ccc([N+](=O)[O-])cc1S(=O)(=O)Nc1ccc(C2=NNC(c3cccs3)C2)cc1 (configuration not stated)
### Response > 100 µM

### Prompt Value lookup for TGI; key = C#Cc1cccc(Nc2ncnc3ccc(-c4cnc(Cl)c(NS(C)(=O)=O)c4)cc23)c1
### Response 0.402 µM

### Prompt Value lookup for TGI; key = CCn1cc(C(=O)N/N=C/c2cccc(F)c2)c(=O)c2cc(F)c(N3CCNC(C)C3)c(F)c21 (configuration not stated)
### Response 3.16 µM

### Prompt Value lookup for TGI; key = O=c1ccccc(-c2ccc(-c3ccco3)cc2)c1O
### Response 73.8 µM

### Prompt Value lookup for TGI; key = Cc1ccc(Nc2nc(=O)[nH]c(=O)[nH]2)cc1N=[N+]=[N-]
### Response > 100 µM

### Prompt Value lookup for TGI; key = COc1ccc(-c2csc(NC(=O)N3CCN(c4cc5c(cc4F)c(=O)c(C(=O)O)cn5C4CC4)CC3)n2)cc1
### Response > 100 µM

### Prompt Value lookup for TGI; key = O=C(OCC1CCCN2CCCCC12)c1ccncc1 (configuration not stated)
### Response > 100 µM

### Prompt Value lookup for TGI; key = O=C(Nc1ccc(Cl)cc1)c1cc2cc(F)ccc2cc1O
### Response > 100 µM

### Prompt Value lookup for TGI; key = Cc1cccc2c1O/C(=C\c1ncc([N+](=O)[O-])n1C)C2=O
### Response 2.92 µM
